biological target: glucocerebrosidase (Gcase) (Homo sapiens); assay: Glucocerebrosidase (Gcase) activation assay, 4-methylumbelliferyl-beta-D-glucopyranoside substrate, fluorescence; assay type: biochemical; settings: 0.25 h, pH 4.7, test compound at 1.0 μM, 10 nM GCase, 100 nM saposin C, read-out: Percent Gcase Activation 1 μM Test Compound
Sequence (P04062 40-536): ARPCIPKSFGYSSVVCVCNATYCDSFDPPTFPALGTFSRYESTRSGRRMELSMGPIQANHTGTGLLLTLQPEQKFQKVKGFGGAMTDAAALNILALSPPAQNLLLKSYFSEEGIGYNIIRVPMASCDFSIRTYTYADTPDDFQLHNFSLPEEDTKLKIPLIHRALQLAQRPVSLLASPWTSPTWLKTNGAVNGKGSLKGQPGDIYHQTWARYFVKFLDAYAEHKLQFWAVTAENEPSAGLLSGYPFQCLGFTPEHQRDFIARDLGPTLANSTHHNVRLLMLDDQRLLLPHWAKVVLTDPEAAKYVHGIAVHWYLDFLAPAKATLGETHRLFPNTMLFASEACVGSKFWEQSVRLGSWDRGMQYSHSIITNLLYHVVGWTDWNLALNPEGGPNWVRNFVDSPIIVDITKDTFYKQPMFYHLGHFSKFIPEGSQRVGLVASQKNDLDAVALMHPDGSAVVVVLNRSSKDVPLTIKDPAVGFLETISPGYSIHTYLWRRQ
endpoint: activation at 1 µM

Below, 2 molecules whose answers are already recorded.
Cc1cc(C)n2cc(C3CC3)c(C(=O)NC(C)(C)C3CC3)c2n1 | 30 to 60%
Cc1cc(C)n2ccc(C(=O)N[C@@H](C)c3ccccc3F)c2n1 | > 60%

Ask | Look up and state reported activation at 1 µM for Cc1cc(C)n2ccc(C(=O)NC(C)c3cccc(-n4cccn4)c3)c2n1 (stereo not drawn)
Reply | > 60%

Ask | Look up and state reported activation at 1 µM for Cc1cc(-c2cccnc2)nc2c(C(=O)N[C@H]3CC[C@H](OC(C)(C)C)CC3)ccn12
Reply | > 60%
